system: CAL-54 (Kidney Carcinoma); assay: Bliss excess, mean over the matrix (fraction); higher = more synergy;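 note: after 72 h of two-drug dosing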
For each of the compounds below, state its Bliss excess.
One number for each entry.

{"columns": ["Compound", "Recorded Number"],
 "data": [
  ["C[C@@H](c1ccc2nccn2c1)n1nnc2ncc(-c3cnn(C)c3)nc21 [Savolitinib] + Cc1c2c(nn1C)CSCc1cc(n(C)n1)CSc1cc(c3ccccc3c1)OCCCc1c(C(=O)O)n(C)c3c-2c(Cl)ccc13 [AZD5991] (first compound max 1 µM, 7x7, partner max 1 µM)", -0.0337]
]}

// next entry
For this compound ( C=CCn1c(=O)c2cnc(Nc3ccc(N4CCN(C)CC4)cc3)nc2n1-c1cccc(C(C)(C)O)n1 [AZD1775] + O=C(c1cc(Cc2n[nH]c(=O)c3ccccc23)ccc1F)N1CCN(C(=O)C2CC2)CC1 [Olaparib] (first compound max 1 µM, partner max 10 µM) ), measured Bliss excess is -0.0341

* * *

For each of the molecules below, state its Bliss excess.
system: SUP-T1 (T-Lymphoblastic Leukemia); experiment: Bliss excess, mean over the matrix (fraction); higher = more synergy

In the examples that follow, each entry is paired with its recorded Bliss excess.
{"columns": ["Molecule", "System Under Test", "Bliss excess"],
 "data": [
  ["CN(CCO)CC[C@H](CSc1ccccc1)Nc1ccc(S(=O)(=O)NC(=O)c2ccc(N3CCC([C@@H](O)c4ccccc4-c4ccc(Cl)cc4)CC3)cc2)cc1S(=O)(=O)C(F)(F)F [AZD4320] + Cn1cnc2c(F)c(Nc3ccc(Br)cc3Cl)c(C(=O)NOCCO)cc21 [Selumetinib] (first compound max 1 µM, 7x7, partner max 3 µM)", "SUP-T1 (T-Lymphoblastic Leukemia)", -0.0462],
  ["CN(C)CCCOc1ccc(-c2ccc3ncc4c(c3c2)n(C2CCOCC2)c(=O)n4C)cn1 [AZD0156] + C=CCn1c(=O)c2cnc(Nc3ccc(N4CCN(C)CC4)cc3)nc2n1-c1cccc(C(C)(C)O)n1 [AZD1775] (first compound max 1 µM, partner max 1 µM)", "SUP-T1 (T-Lymphoblastic Leukemia)", -0.0251]
]}

For this molecule ( CC(=O)Nc1cccc(-n2c(=O)n(C3CC3)c(=O)c3c(Nc4ccc(I)cc4F)n(C)c(=O)c(C)c32)c1 [Trametinib] + Cc1nc(-c2cn3c(n2)-c2ccc(-c4cnn(C(C)(C)C(N)=O)c4)cc2OCC3)n(C(C)C)n1 [Taselisib] (first compound max 1 µM, 7x7, partner max 10 µM) ), measured Bliss excess is 0.0363

* * *

system: RPMI-6666 (Non-Cancerous); test: Bliss excess, mean over the matrix (fraction); higher = more synergy
For each of the compounds below, state its Bliss excess.
One number for each entry.

In the examples that follow, each entry is paired with its recorded Bliss excess.
{"columns": ["Compound", "System Under Test", "Bliss excess"],
 "data": [
  ["COc1nnc2ccc(N3CCC(c4ccc(OCCN5CCN(C)C(=O)[C@H]5C)cc4)CC3)nn12 [AZD5153] + Cc1c2c(nn1C)CSCc1cc(n(C)n1)CSc1cc(c3ccccc3c1)OCCCc1c(C(=O)O)n(C)c3c-2c(Cl)ccc13 [AZD5991] (first compound max 1 µM, 7x7, partner max 1 µM)", "RPMI-6666 (Non-Cancerous)", -0.0409],
  ["CN(CCO)CC[C@H](CSc1ccccc1)Nc1ccc(S(=O)(=O)NC(=O)c2ccc(N3CCC([C@@H](O)c4ccccc4-c4ccc(Cl)cc4)CC3)cc2)cc1S(=O)(=O)C(F)(F)F [AZD4320] + C[C@@H](Nc1cc(F)cc(F)c1)c1cc(C(=O)N(C)C)cc2c(=O)cc(N3CCOCC3)oc12 [AZD8186] (first compound max 1 µM, 7x7, partner max 3 µM)", "RPMI-6666 (Non-Cancerous)", 0.0298]
]}

// next entry
For this compound ( Cc1c2c(nn1C)CSCc1cc(n(C)n1)CSc1cc(c3ccccc3c1)OCCCc1c(C(=O)O)n(C)c3c-2c(Cl)ccc13 [AZD5991] + CC(=O)O[C@H]1C(=O)[C@@]2(C)[C@H]([C@H](OC(=O)c3ccccc3)[C@]3(O)C[C@H](OC(=O)[C@H](O)[C@@H](NC(=O)c4ccccc4)c4ccccc4)C(C)=C1C3(C)C)[C@]1(OC(C)=O)CO[C@@H]1C[C@@H]2O [Paclitaxel] (first compound max 1 µM, 7x7, partner max 3 µM) ), measured Bliss excess is -0.0139
